# Lookup of reported viability, T/C keyed by entry
Tested on: 994946-033-R-J1-PDC complex spheroid viability
Test: Anticancer human tumor 994946-033-R-J1-PDC patient-derived melanoma cell line growth inhibition [POLQ]
Settings: second compound 3.16 µM; first compound 0.00316 µM; hits give low values

{"columns": ["Compound", "System Tested", "Value Units", "viability, T/C"],
 "data": [
  ["C=CCn1c(=O)c2cnc(Nc3ccc(N4CCN(C)CC4)cc3)nc2n1-c1cccc(C(C)(C)O)n1 + Nc1ccc(C#CCN(C(=O)Cc2ncc(C(F)(F)F)cc2C(F)(F)F)c2ccc(F)cc2)nn1", "994946-033-R-J1-PDC complex spheroid viability", "%", 109],
  ["COc1cccc(OCCCN)c1-c1cc(Nc2cnc(C#N)cn2)n[nH]1 + Nc1ccc(C#CCN(C(=O)Cc2ncc(C(F)(F)F)cc2C(F)(F)F)c2ccc(F)cc2)nn1", "994946-033-R-J1-PDC complex spheroid viability", "%", 94.6],
  ["C=CCn1c(=O)c2cnc(Nc3ccc(N4CCN(C)CC4)cc3)nc2n1-c1cccc(C(C)(C)O)n1 + COC1C(OC(N)=O)C(O)C(Oc2ccc3c(O)c(NC(=O)c4ccc(O)c(CC=C(C)C)c4)c(=O)oc3c2C)OC1(C)C", "994946-033-R-J1-PDC complex spheroid viability", "%", 91.9],
  ["CC[C@@]1(O)C(=O)OCc2c1cc1n(c2=O)Cc2cc3c(CN(C)C)c(O)ccc3nc2-1 + COC1C(OC(N)=O)C(O)C(Oc2ccc3c(O)c(NC(=O)c4ccc(O)c(CC=C(C)C)c4)c(=O)oc3c2C)OC1(C)C", "994946-033-R-J1-PDC complex spheroid viability", "%", 77]
]}

----------
Measured viability, T/C, listed per entry.
Test system: 994946-033-R-J1-PDC complex spheroid viability
Experiment: Anticancer human tumor 994946-033-R-J1-PDC cell line growth inhibition [POLQ];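 also: spheroids exposed to drugs for 7 days; 100% = DMSO vehicle treated spheroids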
Conditions: second compound 10 µM; first compound 0.0316 µM; hits give low values
Experimental: Multicellular complex tumor spheroid response to Polymerase (POL) inhibitors (novobiocin, ART-558, RP6685) in combination with a variety of drugs and investigational agents in selected tumor cell lines The POL inhibitors (novobiocin, ART-558, and RP6685) were evaluated both individually and in combination with standard of care and investigational anticancer small molecules within a complex spheroid model of solid tumors. . […]

{"columns": ["Compound", "viability, T/C (%)"],
 "data": [
  ["CCc1cc2c(N3CCc4c(cc(Cn5ccnc5)cc4-c4cn(C)nc4C(F)(F)F)C3=O)cc(C)nc2c(OC)n1 + COC1C(OC(N)=O)C(O)C(Oc2ccc3c(O)c(NC(=O)c4ccc(O)c(CC=C(C)C)c4)c(=O)oc3c2C)OC1(C)C", 68.1],
  ["CNCc1ccc(-c2[nH]c3cc(F)cc4c3c2CCNC4=O)cc1 + Cc1cccc(N(C)C(=O)C2C(O)CCN2c2nc(C)cc(C(F)(F)F)c2C#N)c1", 103],
  ["CC[C@@]1(O)C(=O)OCc2c1cc1n(c2=O)Cc2cc3c(CN(C)C)c(O)ccc3nc2-1 + COC1C(OC(N)=O)C(O)C(Oc2ccc3c(O)c(NC(=O)c4ccc(O)c(CC=C(C)C)c4)c(=O)oc3c2C)OC1(C)C", 30.3],
  ["CC1COCCN1c1cc(C2(S(C)(=N)=O)CC2)nc(-c2ccnc3[nH]ccc23)n1 (stereo not given) + Cc1cccc(N(C)C(=O)C2C(O)CCN2c2nc(C)cc(C(F)(F)F)c2C#N)c1", 96.5],
  ["C#Cc1c(F)ccc2cc(O)cc(-c3ncc4c(N5CC6CCC(C5)N6)nc(OCC56CCCN5CC(F)C6)nc4c3F)c12 (stereo not given) + Nc1ccc(C#CCN(C(=O)Cc2ncc(C(F)(F)F)cc2C(F)(F)F)c2ccc(F)cc2)nn1", 80]
]}

The reported numbers originate from PubChem BioAssay AID1963827.
